System: U2OS
Experiment: Multiplex assay against U2OS
Type: toxicity, cell-based
Details: human, 48 h, 1 µM, compound concentration 1 uM, replicate 1
The reader will find reported Population Mitotic Cells (%) values listed item by item below.
State the value with its unit after it.

// worked examples, Population Mitotic Cells (%) included
>  <molecule>
Nc1nc2c(c(N3CCNCC3)n1)CCC1=C2[C@@H]2CCCC[C@@H]2O1

>  <Population Mitotic Cells (%)>
68%

$$$$
>  <molecule>
CCCn1c(=O)c2[nH]c(C34CC5CC(CC3C5)C4)nc2n(CCC)c1=O

>  <Population Mitotic Cells (%)>
27%

$$$$
>  <molecule>
CCC(=O)O[C@]1(C(=O)SCF)[C@H](C)C[C@H]2[C@@H]3C[C@H](F)C4=CC(=O)C=C[C@]4(C)[C@@]3(F)[C@@H](O)C[C@@]21C [FLUTICASONE PROPIONATE]

>  <Population Mitotic Cells (%)>
46%

$$$$

Moving on to the next molecule.
Asked: What value of Population Mitotic Cells (%) on U2OS does `CC(C)N1CCC(C)(C)c2cc(C#Cc3ccc(C(=O)O)cc3)ccc21` have?
Given back: 75%

###

Test system: U2OS
Test: Multiplex assay against U2OS
Assay type: toxicity, cell-based
Details: human, 12 h, 1 µM, compound concentration 1 uM, replicate 1
Dear colleague, classification is by Population Hoechst High Intensity Objects (%), with ranges listed here: low: < 5%; medium: ≥ 5% and < 7%; high: ≥ 7%

Reference set, count: 10
>  <molecule>
CC(C)N1CCC(C)(C)c2cc(C#Cc3ccc(C(=O)O)cc3)ccc21

>  <class.assignment>
high

$$$$
>  <molecule>
CC(C)Oc1ccc(C(=O)N[C@H](CNC(=O)CN(C)C)Cc2ccc(-c3cn4cccc([C@H](C)O)c4n3)cc2)cc1Cl [GSK-923295A]

>  <class.assignment>
low

$$$$
>  <molecule>
CN(C)CCOc1ccc(-c2nc(-c3ccncc3)c(-c3ccc4c(c3)CC/C4=N\O)[nH]2)cc1 [SB590885]

>  <class.assignment>
high

$$$$
>  <molecule>
Cc1cc2c(cc1N1C(=O)c3cccc4c(CCCO)ccc(c34)C1=O)n(C)c(=O)n2C

>  <class.assignment>
medium

$$$$
>  <molecule>
Nc1ccc(C(=O)Nc2cccc(-c3nc(N4CCOCC4)c4oc5ncccc5c4n3)c2)cn1

>  <class.assignment>
high

$$$$
>  <molecule>
O=C(O)c1ccc2cc(-c3ccc(O)c(C45CC6CC(CC(C6)C4)C5)c3)ccc2c1 [O-DEMETHYLATED ADAPALENE]

>  <class.assignment>
high

$$$$
>  <molecule>
CNC(=O)c1nn(C)c2c1C(C)(C)Cc1cnc(Nc3ccc(N4CCN(C)CC4)cc3)nc1-2 [MILCICLIB]

>  <class.assignment>
medium

$$$$
>  <molecule>
CNC(=O)c1cc(Oc2ccc(NC(=O)Nc3cc(C(C)(C)C)nn3-c3ccc4ncccc4c3)c(F)c2)ccn1 [REBASTINIB]

>  <class.assignment>
low

$$$$
>  <molecule>
CCOc1cc(N2CCC(O)CC2)ccc1Nc1ncc2c(n1)N(C1CCCC1)CCC(=O)N2C

>  <class.assignment>
low

$$$$
>  <molecule>
CCn1c(-c2nonc2N)nc2cnc(Oc3cccc(NC(=O)c4ccc(OCCN5CCOCC5)cc4)c3)cc21 [GSK-269962A]

>  <class.assignment>
high

$$$$

Asked: Looking at `Cl.Cl.NC1(c2ccc(-c3nc4ccn5c(=O)[nH]nc5c4cc3-c3ccccc3)cc2)CCC1` , which class would you pick?
Given back: low

Asked: Any idea which band `COc1ccc(NS(=O)(=O)c2sc3ccc(Cl)cc3c2C)cc1N1CCNCC1.Cl` is in?
Given back: medium

Asked: Input CCOc1cc2ncc(C#N)c(Nc3ccc(OCc4cccc(F)c4)c(Cl)c3)c2cc1NC(=O)/C=C/CN(C)C [HKI-357] ; output its category
Given back: low

###

Tested on: HEK-293T
Test: Multiplex assay against HEK293T
Assay type: toxicity, cell-based
Conditions: human, 24 h, 1 µM, compound concentration 1 uM, replicate 1
endpoint: Population Pyknosed Nuclei (%)
Form entry: value (%) — number only.

Record excerpt, results attached:
>  <smiles.code>
COc1cc2c(NC3CCN(C(C)C)CC3)nc(N3CCC(F)(F)CC3)nc2cc1OCCCN1CCCC1

>  <Population Pyknosed Nuclei (%)>
41

$$$$
>  <smiles.code>
CCOc1cc(N2CCC(O)CC2)ccc1Nc1ncc2c(n1)N(C1CCCC1)CCC(=O)N2C

>  <Population Pyknosed Nuclei (%)>
9

$$$$

Then there is this compound:
Asked: Would you kindly share the measured Population Pyknosed Nuclei (%) for `Nc1ccc(C(=O)Nc2cccc(-c3nc(N4CCOCC4)c4oc5ncccc5c4n3)c2)cn1` ?
Given back: 59

###

# Population Membrane Permeable-Phenotype (%) values compiled below
System: Fibroblast
Experiment: Multiplex assay against human fibroblast
Type: toxicity, cell-based
Conditions: 24 h, 10 µM, compound concentration 10 uM, replicate 2
Response body: numeric value in %, unit text excluded.

>  <smiles.code>
Cc1cc2c(cc1N1C(=O)c3cccc4c(CCCO)ccc(c34)C1=O)n(C)c(=O)n2C

>  <unit.annotation>
%

>  <assay.value>
41

$$$$

Here's the next entry for you.
Asked: Entry under review: `CCCn1c(=O)c2[nH]c(C34CC5CC(CC3C5)C4)nc2n(CCC)c1=O` . Reported Population Membrane Permeable-Phenotype (%)?
Given back: 41

###

System: Fibroblast
Assay: Multiplex assay against human fibroblast
Assay type: toxicity, cell-based
Settings: 12 h, 1 µM, compound concentration 1 uM, replicate 1
Listing of recorded Population Apoptotic (%) by entry.
Express your answer in %, writing the number without its unit.

Would you please look over these solved cases?
>  <compound>
COc1cc(N2CCC(N(C)C)CC2)ccc1Nc1ncc(Cl)c(Nc2ccccc2P(C)(C)=O)n1

>  <unit.annotation>
%

>  <Population Apoptotic (%)>
64

$$$$
>  <compound>
CNC(=O)c1nn(C)c2c1C(C)(C)Cc1cnc(Nc3ccc(N4CCN(C)CC4)cc3)nc1-2

>  <unit.annotation>
%

>  <Population Apoptotic (%)>
74

$$$$
>  <compound>
COc1cc2c(Nc3ccc(NC(=O)c4ccccc4)cc3)ncnc2cc1OCCCN1CCOCC1

>  <unit.annotation>
%

>  <Population Apoptotic (%)>
55

$$$$
>  <compound>
COc1ccc(NS(=O)(=O)c2sc3ccc(Cl)cc3c2C)cc1N1CCNCC1.Cl

>  <unit.annotation>
%

>  <Population Apoptotic (%)>
50

$$$$
>  <compound>
CCC(=O)O[C@]1(C(=O)SCF)[C@H](C)C[C@H]2[C@@H]3C[C@H](F)C4=CC(=O)C=C[C@]4(C)[C@@]3(F)[C@@H](O)C[C@@]21C [FLUTICASONE PROPIONATE]

>  <unit.annotation>
%

>  <Population Apoptotic (%)>
71

$$$$

Asked: Lab note: need Population Apoptotic (%) for CCn1c(-c2nonc2N)nc2cnc(Oc3cccc(NC(=O)c4ccc(OCCN5CCOCC5)cc4)c3)cc21 [GSK-269962A] on Fibroblast, anyone have it?
Given back: 50

Asked: Could you share what Population Apoptotic (%) was measured for `Cc1cc2c(cc1N1C(=O)c3cccc4c(CCCO)ccc(c34)C1=O)n(C)c(=O)n2C` , tested on Fibroblast?
Given back: 68

###

Measured Population Apoptotic (%) of individual entries
Tested on: Fibroblast
Experiment: Multiplex assay against human fibroblast
Format: toxicity, cell-based
Conditions: 24 h, 10 µM, compound concentration 10 uM, replicate 2
Report the value in % with no unit label.

>  <compound>
c1ccc2oc(-c3csc(C4CCN(Cc5nc6ncccc6[nH]5)CC4)n3)cc2c1

>  <Population Apoptotic (%)>
100

$$$$
>  <compound>
Cc1nc(Cc2cccc(C(F)(F)F)c2)sc1-c1ccc(C(N)=O)nc1 [TP-024n]

>  <Population Apoptotic (%)>
44

$$$$
>  <compound>
Cc1cc2c(cc1N1C(=O)c3cccc4c(CCCO)ccc(c34)C1=O)n(C)c(=O)n2C

>  <Population Apoptotic (%)>
80

$$$$
>  <compound>
CC(C)N1CCC(C)(C)c2cc(C#Cc3ccc(C(=O)O)cc3)ccc21

>  <Population Apoptotic (%)>
100

$$$$

Please turn your attention to the following entry.
Asked: Given the entry `CCCn1c(=O)c2[nH]c(C34CC5CC(CC3C5)C4)nc2n(CCC)c1=O` , report its measured Population Apoptotic (%).
Given back: 56

###

Tested on: U2OS
Assay: Incucyte cell viability with U2OS; note: filed as whole numbers so only -1 and 0 and 1 occur
Type: toxicity, cell-based
Conditions: human, 12 h, 10 µM, compound concentration 10 uM, replicate number 1, timepoint 12 hours
endpoint: Growth Rate
Provide a numeric answer; units are not to be included.

>  <molecule>
N#Cc1ccc(Nc2ccc3[nH]c(=O)[nH]c3c2)c(Cl)c1 [TP-021n]

>  <tested.target>
U2OS

>  <Growth Rate>
0

$$$$
>  <molecule>
CN1CC(=O)N=C1NC(=O)Nc1cccc(Cl)c1 [FENOBAM ANHYDROUS]

>  <tested.target>
U2OS

>  <Growth Rate>
0

$$$$
>  <molecule>
CCC(=O)N1CC[C@H](Nc2ncnc3c2CN(c2cnc(OC)c(C(F)(F)F)c2)CC3)C1

>  <tested.target>
U2OS

>  <Growth Rate>
0

$$$$
>  <molecule>
CCCc1c(-c2ccc(O)cc2)nn(-c2ccc(O)cc2)c1-c1ccc(O)cc1

>  <tested.target>
U2OS

>  <Growth Rate>
1

$$$$

Asked: // lookup Growth Rate for `CO[C@@H]1COCC[C@@H]1N[C@@H]1CC[C@@](C(=O)N2CCc3ncc(C(F)(F)F)cc3C2)(C(C)C)C1`
Given back: 1

Asked: Requested read-out: Growth Rate. Entry: `Nc1nc(NCCc2ccc(O)cc2)nc2nc(-c3ccco3)nn12`
Given back: 0

Asked: Find the recorded Growth Rate belonging to `CCNC(=O)c1cc2c(N3CCOC[C@@H]3C)ccnc2[nH]1` and report it.
Given back: 0

Asked: Fill in the blank: the reported Growth Rate of `CCC(=O)N[C@@H]1CC[C@H](C(=O)N(C)c2ccc(-c3nc4ccccc4o3)cc2)C1` is ____.
Given back: 0

Asked: I'd like to know its Growth Rate. The molecule in question is CN(C)CC[C@@H](c1ccc(Cl)cc1)c1ccccn1.O=C(O)/C=C\C(=O)O [DEXCHLORPHENIRAMINE MALEATE]
Given back: 1

Asked: Fill blank: measured Growth Rate of the molecule `CC(C)(C)c1cnc(CSc2cnc(NC(=O)C3CCNCC3)s2)o1` is ____.
Given back: 0

Asked: Request the reported Growth Rate associated with `N#CC1(c2ccccn2)CCN(Cc2cc(C(=O)N3CCCC3)c(=O)n3ccccc23)CC1`
Given back: 0

Asked: # get_value(readout='Growth Rate', item= `C[C@H](c1ccnc(Nc2nc3ccc(-c4cc(N(C)C)ncn4)cc3[nH]2)c1)N1CCN(C(=O)CC(F)(F)F)CC1` )
Given back: 1

Asked: # input molecule: `CC(C)N1CCC(C)(C)c2cc(C#Cc3ccc(C(=O)O)cc3)ccc21` ; wanted: its Growth Rate
Given back: 1
